Assign Percent Effect to each entry below.
test system: Wolbachia pipientis; assay: Anti-Wolbachia Cell-Based Screen; type: functional; design: scale not given: in the data most compounds retested in dose-response had high values; conditions: 5 µM
The campaign covered roughly 48,000 compounds. About 13,000 (27%) showed an effect of 50% or more. The list shows a part of the results.
Give bare numbers, in %.

Worked examples follow.
compound: NC(=O)C1CCCN(Cc2ccc(C(=O)Nc3cnns3)cc2)C1 (stereo not given)
uom: %
Percent Effect: 103.7

compound: CCN(Cc1nc2c(cnn2C)c(=O)[nH]1)Cc1ccco1
uom: %
Percent Effect: 83.36

compound: CCc1cc(NCCNC(=O)c2cccnc2)n2nc(C)c(C)c2n1
uom: %
Percent Effect: 18.31

compound: Cc1cc(NCc2nnc3n2CCC3)n2nc(C)c(C)c2n1
uom: %
Percent Effect: 8.542

compound: CNc1ccnc(NCCSc2nccn2C)n1
uom: %
Percent Effect: 3.348

Would you mind listing Percent Effect for each of the following compounds?
1. CCN(CC)C(CNCc1cc(F)cc(F)c1)c1ccco1 (stereo not given)
2. O=C(c1ccnnc1)N1CC[C@H](OCC2CC2)[C@@H]1Cc1ccncc1
3. CCCN(C(=O)c1cnns1)C1CCCN(Cc2ccccc2)C1 (stereo not given)
4. CCc1cc(NCCc2cnccn2)n2nc(C)c(C)c2n1
5. NC(=O)c1ccc(CN2CCCC(N3CCCC3)C2)cc1 (stereo not given)

1: 4.253; 2: 0.4029; 3: 20.84; 4: -4.525; 5: -7.606

Would you mind listing Percent Effect for each of the following compounds?
1. CCCc1cc(NCCn2cccn2)n2ncnc2n1
2. O=C(c1ccc(CN2CCCC2)cc1)N1CCCC(n2cccn2)C1 (stereo not given)
3. CCNC(=O)C1CCN(Cc2ccc(C(=O)Nc3nnc(C)s3)cc2)C1 (stereo not given)
4. CCO[C@@H]1CCN(C(=O)c2ccnnc2)[C@@H]1Cc1cnn(C)c1
5. Cc1cc(NCCCNc2cccnc2)n2nc(C)c(C)c2n1
6. Cc1cc(NCCn2cccn2)n2ncnc2n1
7. CCN(Cc1nc2c(cnn2C)c(=O)[nH]1)Cc1cccs1

[-13, 0.6704, 100.1, -9.757, 88.33, -4.993, 17.21]

Would you mind listing Percent Effect for each of the following compounds?
1. CC(C)Oc1cccc(CC(=O)N(CC(N)=O)C2CCCC2)c1
2. Cc1ccnc(NCCSc2nccn2C)n1

[-6.842, -1.785]

###

Assign Percent Effect to each entry below.
test system: Wolbachia pipientis; test: Anti-Wolbachia Cell-Based Screen; assay type: functional; set-up: scale not given: in the data most compounds retested in dose-response had high values; conditions: 5 µM
The whole screen tested about 48,000 compounds, of which about 13,000 (27%) showed an effect of 50% or more. The list shows a part of the results.
Numbers only, in %.

compound: O=C(CCNC(=O)c1ccccc1F)NCCNc1cccnc1
uom: %
assayValue: 5.027
--
compound: CCOc1cccc(C(=O)Nc2ccncc2)c1
uom: %
assayValue: 88.42
--
compound: CCCNC(=O)c1ccc(NC(=O)c2cccc(OCC)c2)cc1
uom: %
assayValue: 17.24

Would you mind listing Percent Effect for each of the following compounds?
1. Cc1cccc(C)c1NC(=O)c1cc(S(N)(=O)=O)c(C)o1
2. Cc1c(Cl)cccc1NC(=O)N1CCC2(CC1)NC(=O)CC2C(=O)O (stereo unspecified)
3. O=C(CCNC(=O)C1=Cc2ccccc2OC1)NCc1ccncc1

102.4
-2.177
-4.464

###

tested on: Wolbachia pipientis; experiment: Anti-Wolbachia Cell-Based Screen; type: functional; parameters: scale not given: in the data most compounds retested in dose-response had high values; details: 5 µM
The whole screen tested about 48,000 compounds, of which about 13,000 (27%) showed an effect of 50% or more. The list shows a part of the results.
Assign Percent Effect to each entry below.
Answers are plain numbers, in %.

molecule: COCCN1CCCC(c2nccnc2Nc2nc(C)cs2)C1 (stereo not given)
uom: %
Percent Effect: 86.28

molecule: CC(NC(=O)N1CCC[C@H]1CO)c1noc(-c2ccccc2)n1 (stereo not given in full)
uom: %
Percent Effect: 5.475

molecule: Cc1nn(C)c(C)c1C1CCCN1C(=O)c1nccnc1N (stereo not given)
uom: %
Percent Effect: 101

molecule: CC1(C)CC(=O)N(CC(=O)Nc2ccon2)c2ccccc21
uom: %
Percent Effect: 100.4

molecule: CC1CCCN(Cc2ccc(CNC(=O)NCc3ccon3)cc2)C1 (stereo not given)
uom: %
Percent Effect: -7.486

molecule: CN1[C@H](CO)C[C@H](CNCc2ccc(Cl)c(F)c2)[C@@H]1c1ccccc1F
uom: %
Percent Effect: -19.47

molecule: CC(=O)N1CCCC1c1nnn2cc(NCc3cccnc3)ccc12.O=C(O)C(F)(F)F.O=C(O)C(F)(F)F (stereo not given)
uom: %
Percent Effect: 4.094

molecule: Cc1cnn(CCNCc2ccc(C#N)cc2F)c1
uom: %
Percent Effect: -2.376

Would you mind listing Percent Effect for each of the following molecules?
1. Cc1cc(C2CCCN2C(=O)NCc2cccnc2)on1 (stereo not given)
2. COCCn1ccnc1-c1cc(CN2CCCCC2)cs1

[-8.527, -8.994]

Would you mind listing Percent Effect for each of the following molecules?
1. Cc1nn(C)c(Cl)c1C1CCCN1C(=O)c1nccnc1N (stereo not given)
2. COc1c(C2CCCN2C(=O)c2nccnc2N)c(C)nn1C (stereo not given)
3. CCC1c2ccccc2CCN1C(=O)c1ccc(OC)nn1 (stereo not given)

-5.243
108.6
-4.117

Would you mind listing Percent Effect for each of the following molecules?
1. CCCc1cncnc1N1CCC(NCCc2ccc(O)cc2)CC1
2. CCN1CCN(Cc2c(C3CCCC3)[nH]c3ncccc23)CC1

1.389
101.4

Would you mind listing Percent Effect for each of the following molecules?
1. Cc1nnc2n1CCN(C(C(=O)NC1CC1)c1ccccc1)C2 (stereo not given)
2. O=C(CN1CCCCCC1)NCc1cccnc1Oc1ccccc1
3. Cc1cnn(CC2CCCN2C(=O)c2cc(O)nc3ccccc23)c1 (stereo not given)
4. Cc1cnn(CC2CCCN2C(=O)c2cn(C)c3ccccc23)c1 (stereo not given)
5. CC(=O)N1CCCC1c1nccnc1NCc1cccnc1 (stereo not given)
6. O=C(NCC1CC(=O)N(CCc2ccccc2)C1)c1ccon1 (stereo not given)
7. Cc1cc(NC(=O)CN2CCn3c(C)nnc3C2)no1
8. OCC1CCCN(Cc2c(C3CCCC3)[nH]c3ncccc23)C1 (stereo not given)

1: -4.736; 2: -1.634; 3: 145.5; 4: 141.3; 5: 106.4; 6: 4.92; 7: 3.854; 8: 82.97

Would you mind listing Percent Effect for each of the following molecules?
1. O=C(c1cncc2ccccc12)N1CCC[C@@H]1CO
2. Cc1cnn(CCC(=O)N2CCN(c3nc(C)cs3)CC2)c1

106.1
-7.951

###

tested on: Wolbachia pipientis; test: Anti-Wolbachia Cell-Based Screen; format: functional; design: scale not given: in the data most compounds retested in dose-response had high values; conditions: 5 µM
The whole screen tested about 48,000 compounds, of which about 13,000 (27%) showed an effect of 50% or more. This is one part of the list.
Assign Percent Effect to each entry below.
I'd appreciate it if you wrote the number followed by its unit.

compound: CCn1c(N)nc2cc(C(=O)N3CCN(c4nccs4)CC3)cnc21
assayValue: 5.725%

Would you mind listing Percent Effect for each of the following compounds?
1. Cc1nc(N2CCC3(CCOC3)C2)c2cc[nH]c2n1 (stereo unspecified)
2. Cc1nnc2ccc(N3CCC4(CCOC4)C3)nn12 (stereo unspecified)
3. CCN(CC)C(=O)Cn1ccc2cc(NC(=O)C3CCCO3)ccc21 (stereo unspecified)
4. CCc1nnc2n1CCN(Cc1nc(-c3ccoc3)no1)C2
5. NC(=O)C1CCN(C(=O)CCn2ccc3cc(Br)ccc32)CC1
6. O=C(NCCc1ccn(-c2ccc(F)cc2)n1)C1CCCO1 (stereo unspecified)

["96.01%", "-16.97%", "-12.1%", "-0.9507%", "25.85%", "-8.284%"]

###

Assign Percent Effect to each entry below.
system: Wolbachia pipientis; assay: Anti-Wolbachia Cell-Based Screen; format: functional; parameters: scale not given: in the data most compounds retested in dose-response had high values; settings: 5 µM
In all, about 48,000 compounds went through this assay and about 13,000 (27%) showed an effect of 50% or more. The list shows a part of the results.
Answers are plain numbers, in %.

Worked examples follow.
compound: CC(=O)N1CCOC2(CCCN(Cc3ccc(N(C)C)cc3)C2)C1 (stereo unspecified)
measurementTarget: Wolbachia pipientis
uom: %
assayValue: -2.682
--
compound: CCC(CC)(CNC(=O)c1cccn1Cc1cccnc1)N(C)C
measurementTarget: Wolbachia pipientis
uom: %
assayValue: -9.831
--
compound: CO[C@H]1CN(S(=O)(=O)c2ccccc2F)C[C@@]12CCCO2
measurementTarget: Wolbachia pipientis
uom: %
assayValue: 166.4
--
compound: Cc1c(NCCOCC(F)(F)F)cccc1C(=O)N1CCCC1
measurementTarget: Wolbachia pipientis
uom: %
assayValue: 1.47
--
compound: COCCOCC(=O)NC(C#N)c1cc(Cl)cc(Cl)c1 (stereo unspecified)
measurementTarget: Wolbachia pipientis
uom: %
assayValue: -3.504
--
compound: CCSc1cc(C(=O)NC(C)c2cccc(N3CCOC3=O)c2)ccn1 (stereo unspecified)
measurementTarget: Wolbachia pipientis
uom: %
assayValue: -4.217
--
compound: O=C(O)C(F)(F)F.O=C(c1ccccn1)N1CCC2(CC1)C(=O)Nc1ccccc12
measurementTarget: Wolbachia pipientis
uom: %
assayValue: -9.696
--
compound: Cc1[nH]c(-c2ccccc2)nc1C(=O)N1CCC2(CCCO2)CC1
measurementTarget: Wolbachia pipientis
uom: %
assayValue: -0.5796
--
compound: O=C(O)C(F)(F)F.O=C(O)C(F)(F)F.O=C(c1c[nH]cn1)N1CCC(F)(F)C2(CCN(c3ccccn3)C2)C1 (stereo unspecified)
measurementTarget: Wolbachia pipientis
uom: %
assayValue: 6.098
--
compound: COCCOCC(=O)Nc1ccc(C)cc1Cl
measurementTarget: Wolbachia pipientis
uom: %
assayValue: 120.1

Would you mind listing Percent Effect for each of the following compounds?
1. CC(C1CC1)N(C(=O)NCCCn1nc2ccccn2c1=O)C1CC1 (stereo unspecified)
2. Cc1ccc(NC(=O)N(C)CC(O)COCCOC(C)C)c(Br)c1 (stereo unspecified)
3. CCN(CCO)C(=O)C1CCC(=O)N(CCc2cccc(F)c2)C1 (stereo unspecified)
4. OC[C@@H]1CCCN1Cc1cn(C2CCN(C3CCCC3)CC2)nn1
5. CO[C@H]1CN(S(=O)(=O)c2ccc(C)cc2)C[C@@]12CCCO2
6. Cc1ccc(C(=O)N2CCC3(CCN3c3ncccn3)C2)cn1.O=C(O)C(F)(F)F (stereo unspecified)

[-19.29, -14.49, -9.721, -5.2, 89.74, 98.39]

Would you mind listing Percent Effect for each of the following compounds?
1. CCCc1cc(C(=O)NCCn2nc3ccccn3c2=O)[nH]n1
2. c1cnc(NCc2n[nH]c3c2CCN(Cc2cccnc2)C3)nc1
3. CN1CC[C@]2(CN(C(=O)[C@H]3CCCO3)C[C@H]2c2ccccc2)C1=O
4. O=c1[nH]c(N2CCCCC2)nc2c1CCN(Cc1cccnc1)C2
5. Cc1ccc(NC(=O)CNc2cccc3c2CCCC3)c(Br)c1

0.6756
-6.284
-10.86
95.47
9.995

Would you mind listing Percent Effect for each of the following compounds?
1. COCCN1CCCC2(CCN(c3nccc4ccccc34)C2)C1=O (stereo unspecified)
2. C[C@@H]1CN(S(=O)(=O)c2ccc(F)cc2F)C[C@]1(C)O
3. CN1CSC[C@H]1C(=O)N1CCN(Cc2cccc(F)c2)CC1
4. Cc1ccccc1CSCCn1nc2ccccn2c1=O
5. CNC(=O)CN(C)Cc1ccc(F)cc1Cl
6. O=C(O)C(F)(F)F.O=C(c1ccc2ccccc2n1)N1CCC2(CCN2c2ncccn2)C1 (stereo unspecified)

1: 0.09488; 2: 4.198; 3: -1.728; 4: 8.414; 5: -1.762; 6: 82.49

Would you mind listing Percent Effect for each of the following compounds?
1. O=C(CC1CCCC1)NCCn1nc2ccccn2c1=O
2. O=C1NCC2(CCCN(Cc3ccc(Cl)s3)C2)Oc2ccccc21 (stereo unspecified)
3. CCN1CC[C@]2(CN(C(=O)[C@H]3CCCO3)C[C@H]2c2ccccc2)C1=O
4. CN(C)C(CNCc1nc(-c2ccsc2)no1)c1ccsc1 (stereo unspecified)
5. Cc1ccccc1OCCC(=O)OC(C)C(=O)Nc1sccc1C(N)=O (stereo unspecified)
6. CC(=O)N1CCCN(CCn2nc3ccccn3c2=O)CC1
7. CCC(=O)CNC(=O)CCn1nc2ccccn2c1=O
8. CCOC(=O)c1n[nH]cc1CN1CCOC(Cc2ccc(OC)cc2)C1 (stereo unspecified)

1. 2.754
2. 7.994
3. -5.714
4. 7.6
5. 15.81
6. 104.1
7. -17.3
8. -36.24

Would you mind listing Percent Effect for each of the following compounds?
1. CSc1ccc(CN2CCCC3(CNC(=O)c4ccccc4O3)C2)cc1 (stereo unspecified)
2. O=C1NCC2(CCCN(Cc3ccc(F)cc3)C2)Oc2ccccc21 (stereo unspecified)
3. Cc1ccsc1C(=O)NCCCn1nc2ccccn2c1=O
4. COc1ccc(CC(=O)NCCn2nc3ccccn3c2=O)cc1
5. O=C1CCCc2[nH]c(=O)c(C(=O)N(CC3CCCCC3)C3CC3)cc21
6. CN(Cc1n[nH]c2c1CCCC2)c1cc(N2CCOCC2)nc(N)n1
7. O=C1NCC2(CCCN(Cc3ccccc3F)C2)Oc2ccccc21 (stereo unspecified)
8. OCC1(O)CCCN(Cc2ccc(-c3cc[nH]n3)s2)CC1 (stereo unspecified)

1. 103.9
2. 110.4
3. -12.31
4. 7.031
5. -8.56
6. 14.47
7. -7.876
8. 3.83

Would you mind listing Percent Effect for each of the following compounds?
1. O=c1[nH]c(N2CCOCC2)nc2c1CN(Cc1cccnc1)CC2
2. Cc1cccc(CN2CCc3c(nc(N4CCC(C)CC4)[nH]c3=O)C2)n1
3. CN1CCCN(c2nccc(-c3cncnc3C3CCCCC3)n2)CC1

1. 111.6
2. -8.966
3. 86.07
